- Method Description: Human hepatocyte clearance (HHEP CL)
- Assay type: in vitro ADME
- Design: dose or concentration left out as unconfirmed
- Reported Conditions: both sexes, human, hepatocytes
For each entry below, report its half-life value.
Give bare numbers, in h.

[[record]]
compound = "CC[C@@]1(O)C(=O)OCc2c1cc1n(c2=O)Cc2c-1nc1cc(F)c(C)c3c1c2[C@H](OCCO)CC3 (single isomer, unassigned) [Compound 5-47]"
value_observed = 1.2

[[record]]
compound = "CC[C@@]1(O)C(=O)OCc2c1cc1n(c2=O)Cc2c-1nc1cc(F)c(C)c3c1c2[C@@](C)(NC(=O)CO)CC3 [Compound 9-74]"
value_observed = 1.12

[[record]]
compound = "CC[C@@]1(O)C(=O)OCc2c1cc1n(c2=O)Cc2c-1nc1cc(F)c(C)c3c1c2[C@](C)(O)CC3 (single isomer, unassigned) [Compound 13-85]"
value_observed = 0.85

[[record]]
compound = "CC[C@@]1(O)C(=O)OCc2c1cc1n(c2=O)Cc2c-1nc1cc(F)c(C)c3c1c2[C@H](N)CCC3 (single isomer, unassigned) [Compound 7-60, methanesulfonate]"
value_observed = 0.995

[[record]]
compound = "CC[C@@]1(O)C(=O)OCc2c1cc1n(c2=O)Cc2c-1nc1cc(F)c(C)c3c1c2[C@@H](O)CC3 (single isomer, unassigned) [Compound 3-35]"
value_observed = 1.27

[[record]]
compound = "CC[C@@]1(O)C(=O)OCc2c1cc1n(c2=O)Cc2c-1nc1cc(F)c(C)c3c1c2[C@@](C)(O)CC3 (single isomer, unassigned) [Compound 13-84]"
value_observed = 0.567

[[record]]
compound = "CC[C@@]1(O)C(=O)OCc2c1cc1n(c2=O)Cc2c-1nc1cc(F)c(C)c3c1c2[C@@H](OCCO)CC3 (single isomer, unassigned) [Compound 5-48]"
value_observed = 0.852

[[record]]
compound = "CC[C@@]1(O)C(=O)OCc2c1cc1n(c2=O)Cc2c-1nc1cc(F)c(C)c3c1c2[C@](C)(NC(=O)CO)CC3 [Compound 10-75]"
value_observed = 1.57

[[record]]
compound = "CC[C@@]1(O)C(=O)OCc2c1cc1n(c2=O)Cc2c-1nc1cc(F)c(C)c3c1c2[C@@H](N)CCC3 (single isomer, unassigned) [Compound 7-59, methanesulfonate]"
value_observed = 0.925

[[record]]
compound = "CC[C@@]1(O)C(=O)OCc2c1cc1n(c2=O)Cc2c-1nc1cc(F)c(C)c3c1c2[C@@](C)(OCCO)CC3 (single isomer, unassigned) [Compound 14-91]"
value_observed = 1.01


Consider the compound shown here: CC[C@@]1(O)C(=O)OCc2c1cc1n(c2=O)Cc2c-1nc1cc(F)c(C)c3c1c2[C@@H](N)CC3.CS(=O)(=O)O [Exatecan, reference compound] What is its recorded half-life?
1.08

* * *

For each entry below, report its half-life value.
- Method Description: Human liver microsome clearance (HLM CL)
- Format: in vitro ADME
- Reported Conditions: human, microsomes
Please answer using the number first and the unit second.

Below are worked cases with known answers.
[[record]]
compound = "CC[C@@]1(O)C(=O)OCc2c1cc1n(c2=O)Cc2c-1nc1cc(F)c(C)c3c1c2[C@H](N)CCC3 (single isomer, unassigned) [Compound 7-60, methanesulfonate]"
value_observed = "0.51 h"

[[record]]
compound = "CC[C@@]1(O)C(=O)OCc2c1cc1n(c2=O)Cc2c-1nc1cc(F)c(C)c3c1c2[C@@H](N)CC3.CS(=O)(=O)O [Exatecan, reference compound]"
value_observed = "1.77 h"


Moving on to another compound below.
Consider the compound shown here: CC[C@@]1(O)C(=O)OCc2c1cc1n(c2=O)Cc2c-1nc1cc(F)c(C)c3c1c2[C@@H](O)CC3 (single isomer, unassigned) What is its recorded half-life?
1.03 h

* * *

- Method Description: PAMPA (Parallel Artificial Membrane Permeability Assay)
- Format: physicochemical
- Reported Conditions: pH 5
Counter-ions that a name gives are not always drawn.
Quantity Name: Papp at 5 μM (×10⁻⁶ cm/s)
Answers are plain numbers, in ×10⁻⁶ cm/s.

Below are worked cases with known answers.
[[record]]
compound = "CC[C@@]1(O)C(=O)OCc2c1cc1n(c2=O)Cc2c-1nc1cc(F)c(C)c3c1c2[C@@](C)(O)CC3 (single isomer, unassigned) [Compound 13-84]"
quantity_name = "Papp at 5 μM"
value_observed = 64.4

[[record]]
compound = "CC[C@@]1(O)C(=O)OCc2c1cc1n(c2=O)Cc2c-1nc1cc(F)c(C)c3c1c2[C@H](O)CC3 (single isomer, unassigned) [Compound 3-34]"
quantity_name = "Papp at 5 μM"
value_observed = 78.3

[[record]]
compound = "CC[C@@]1(O)C(=O)OCc2c1cc1n(c2=O)Cc2c-1nc1cc(F)c(C)c3c1c2[C@@](C)(NC(=O)CO)CC3 [Compound 9-74]"
quantity_name = "Papp at 5 μM"
value_observed = 36.1

[[record]]
compound = "CC[C@@]1(O)C(=O)OCc2c1cc1n(c2=O)Cc2c-1nc1cc(F)c(C)c3c1c2[C@@](C)(OCCO)CC3 (single isomer, unassigned) [Compound 14-91]"
quantity_name = "Papp at 5 μM"
value_observed = 67.8


Parameter requested: Papp at 5 μM. Apply to each item below.
1. CC[C@@]1(O)C(=O)OCc2c1cc1n(c2=O)Cc2c-1nc1cc(F)c(C)c3c1c2[C@@H](O)CC3 (single isomer, unassigned) [Compound 3-35]
2. CC[C@@]1(O)C(=O)OCc2c1cc1n(c2=O)Cc2c-1nc1cc(F)c(C)c3c1c2[C@@](C)(N)CC3 (single isomer, unassigned) [Compound 8-71, hydrochloride]
3. CC[C@@]1(O)C(=O)OCc2c1cc1n(c2=O)Cc2c-1nc1cc(F)c(C)c3c1c2[C@](C)(OCCO)CC3 (single isomer, unassigned) [Compound 14-92]
4. CC[C@@]1(O)C(=O)OCc2c1cc1n(c2=O)Cc2c-1nc1cc(F)c(C)c3c1c2[C@](C)(NC(=O)CO)CC3 [Compound 10-75]

1. 66.1
2. 67.7
3. 69.1
4. 46.8

* * *

- Method Description: PAMPA (Parallel Artificial Membrane Permeability Assay)
- Type: physicochemical
- Reported Conditions: pH 7.4
Structures can show the parent of a compound that is named as a salt.
In this scheme, each record receives a class according to its Papp at 5 μM; the ranges are range A: < 6 ×10⁻⁶ cm/s; range B: ≥ 6 ×10⁻⁶ cm/s and < 9 ×10⁻⁶ cm/s; range C: ≥ 9 ×10⁻⁶ cm/s

Example results:
[[record]]
molecule = "CC[C@@]1(O)C(=O)OCc2c1cc1n(c2=O)Cc2c-1nc1cc(F)c(C)c3c1c2[C@](C)(NC(=O)CO)CC3"
class_label = "range A"

[[record]]
molecule = "CC[C@@]1(O)C(=O)OCc2c1cc1n(c2=O)Cc2c-1nc1cc(F)c(C)c3c1c2[C@H](OCCO)CC3 (single isomer, unassigned)"
class_label = "range C"

[[record]]
molecule = "CC[C@@]1(O)C(=O)OCc2c1cc1n(c2=O)Cc2c-1nc1cc(F)c(C)c3c1c2[C@](C)(OCCO)CC3 (single isomer, unassigned)"
class_label = "range A"

[[record]]
molecule = "CC[C@@]1(O)C(=O)OCc2c1cc1n(c2=O)Cc2c-1nc1cc(F)c(C)c3c1c2[C@](C)(N)CC3 (single isomer, unassigned) [Compound 8-72, hydrochloride]"
class_label = "range B"

[[record]]
molecule = "CC[C@@]1(O)C(=O)OCc2c1cc1n(c2=O)Cc2c-1nc1cc(F)c(C)c3c1c2[C@@H](O)CC3 (single isomer, unassigned)"
class_label = "range C"

[[record]]
molecule = "CC[C@@]1(O)C(=O)OCc2c1cc1n(c2=O)Cc2c-1nc1cc(F)c(C)c3c1c2[C@@](C)(OCCO)CC3 (single isomer, unassigned)"
class_label = "range A"

[[record]]
molecule = "CC[C@@]1(O)C(=O)OCc2c1cc1n(c2=O)Cc2c-1nc1cc(F)c(C)c3c1c2[C@@](C)(N)CC3 (single isomer, unassigned) [Compound 8-71, hydrochloride]"
class_label = "range B"

[[record]]
molecule = "CC[C@@]1(O)C(=O)OCc2c1cc1n(c2=O)Cc2c-1nc1cc(F)c(C)c3c1c2[C@@](C)(O)CC3 (single isomer, unassigned)"
class_label = "range B"


Please classify: "CC[C@@]1(O)C(=O)OCc2c1cc1n(c2=O)Cc2c-1nc1cc(F)c(C)c3c1c2[C@@](C)(NC(=O)CO)CC3"
range A

Please classify: CC[C@@]1(O)C(=O)OCc2c1cc1n(c2=O)Cc2c-1nc1cc(F)c(C)c3c1c2[C@H](O)CC3 (single isomer, unassigned)
range B

* * *

- Method Description: PAMPA (Parallel Artificial Membrane Permeability Assay)
- Assay type: physicochemical
- Reported Conditions: pH 5
Structures can show the parent of a compound that is named as a salt.
Quantity Name: Papp at 5 μM (×10⁻⁶ cm/s)
Give bare numbers, in ×10⁻⁶ cm/s.

Below are worked cases with known answers.
[[record]]
compound = "CC[C@@]1(O)C(=O)OCc2c1cc1n(c2=O)Cc2c-1nc1cc(F)c(C)c3c1c2[C@](C)(N)CC3 (single isomer, unassigned) [Compound 8-72, hydrochloride]"
quantity_name = "Papp at 5 μM"
value_observed = 80.8

[[record]]
compound = "CC[C@@]1(O)C(=O)OCc2c1cc1n(c2=O)Cc2c-1nc1cc(F)c(C)c3c1c2[C@](C)(O)CC3 (single isomer, unassigned)"
quantity_name = "Papp at 5 μM"
value_observed = 69.7


Consider the compound shown here: CC[C@@]1(O)C(=O)OCc2c1cc1n(c2=O)Cc2c-1nc1cc(F)c(C)c3c1c2[C@@H](OCCO)CC3 (single isomer, unassigned) What is its recorded Papp at 5 μM?
69
